Biological target: Protein arginine N-methyltransferase 1 (Homo sapiens)
Assay: human PRMT1 activity-probe blockers – biochemical, fluorescence polarization, primary screen (AID 652257)
Details: recombinant PRMT1, activity-based probe fluorescence polarization; at 2.79 µM
Screen size: about 370,000 compounds; about 4,800 (1.3%) were called active.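 Rule for the calls: active = inhibition above about 21% made by adding two undisclosed values (limit read from the data); inactive = the rest.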 This excerpt belongs to a sample that is enriched for actives.
Choose one outcome from this list and give only that: active, inactive

Solved cases below.
compound	class-name
O=C(c1ccncc1)N1CC[C@H]2[C@H](CCCN2Cc2ccc(F)cc2)C1	inactive
CCN(CC)C(=O)CSc1nnc(CNc2ccc(F)cc2)n1Cc1ccco1	inactive
COc1cccc(CNC(=O)C2CCCN(c3nc4ccccc4o3)C2)c1OC (stereo unspecified)	inactive
Cc1cc(=O)[nH]c2nnnn12	inactive
CCOc1ccc(N(CC(=O)Nc2c(C)n(C)n(-c3ccccc3)c2=O)S(=O)(=O)c2ccc(Cl)s2)cc1	inactive
N=c1c2c3c(sc2nc2n1CCCCC2)CCCC3	inactive
COCCN(C(=O)c1ccco1)c1nnc(-c2ccc(OC)cc2)s1	inactive
O=C(OCC(=O)N1CCCCCC1)c1cccc(Cl)c1Cl	inactive
S=c1[nH]nc2c3c4c(sc3ncn12)CCCC4	active
COC(=O)C[C@H]1CC[C@H]2[C@H](COc3ccc(NC(=O)C4CC4)cc3C(=O)N2C)O1	inactive

Request: Give the logged outcome of this assay for the following compound: CCOC(=O)C1=C(CSc2nnnn2C)N(C)C(=O)NC1c1ccccc1 (stereo unspecified)
Response: inactive

---

Biological target: Protein arginine N-methyltransferase 1 (Homo sapiens)
Test: human PRMT1 activity-probe blockers – biochemical, fluorescence polarization, primary screen (AID 652257)
Conditions: recombinant PRMT1, activity-based probe fluorescence polarization; at 2.79 µM; active compounds read high
The whole screen tested about 370,000 compounds, of which about 4,800 (1.3%) were called active. The sample as a whole holds a higher share of actives than the screen did.
We begin with a simple list: items and their reported inhibition.
Write it as a number; the unit % goes unstated.

Some compounds with recorded inhibition:
compound	experimental-readout	result
CC(NCc1ccco1)C(=O)N1CCCCC1 (stereo not given)	inhibition	-2.09
O=C(NCc1cccs1)C1CCN(S(=O)(=O)c2ccccc2[N+](=O)[O-])CC1	inhibition	-2.52
CCCCN1CCN(C(=O)c2ccc3c(c2)NC(=O)C(C)(C)O3)CC1	inhibition	-4.36
O=c1c2ccccc2c(-c2ccc(Br)cc2)nn1Cc1ccccc1	inhibition	3.02
COC(=O)[C@]12C[C@H](CC(=O)NCc3ccccc3)C(=O)N(Cc3ccccc3)C1=C[C@H](COCc1ccccc1)O[C@@H]2C	inhibition	1.65

Request: inhibition for C[C@H]1CN([C@@H](C)CO)S(=O)(=O)c2ccc(Br)cc2O[C@H]1CN(C)C(=O)c1cnccn1 ?
Response: -6.2

Request: inhibition for O=C1Nc2ccccc2OC1CC(=O)N1CCCCCCC1 (stereo not given) ?
Response: 1.11

Request: inhibition for COc1ccc(/C=C2/S/C(=N/N=C3\CC4CCC3(C)C4(C)C)NC2=O)cc1 (stereo not given) ?
Response: -3.61

Request: inhibition for C=CCOC/C=C/C#CCN(CC=C)Cc1ccc(OC)cc1OC ?
Response: -0.66

Request: inhibition for CC1Cn2c(nnc2-c2cccs2)S1 (stereo not given) ?
Response: 5.98

---

We begin with a simple list: items and their reported inhibition.
Target: Protein arginine N-methyltransferase 1 (Homo sapiens)
Experiment: human PRMT1 activity-probe blockers – biochemical, fluorescence polarization, primary screen (AID 652257)
Conditions: recombinant PRMT1, activity-based probe fluorescence polarization; at 2.79 µM; active compounds read high
The campaign covered roughly 370,000 compounds. About 4,800 (1.3%) were called active. For the sample, actives were picked, then their nearest neighbours and some compounds at random.
Write it as a number; the unit % goes unstated.

compound	experimental-readout	result
O=C(CCC(=O)N1CCN(S(=O)(=O)c2ccccc2)CC1)NC1CCCc2ccccc21 (configuration not stated)	inhibition	2.87
COc1nc(NCc2ccc(Cl)cc2)nc(OC)n1	inhibition	-0.93
COc1ccc(-c2cc3c(c4c2ccn4C)C2CCC3C2)cn1 (configuration not stated)	inhibition	32.2

Request: inhibition for Cc1ccc(S(=O)(=O)C2(S(=O)(=O)c3ccc(C)cc3)CCCC2)cc1 ?
Response: 1.95

Request: inhibition for CSc1nc(C)cc(SC(C(C)=O)C(=O)Nc2ccccc2)n1 (configuration not stated) ?
Response: 73.7

Request: inhibition for CCN(CC(=O)Nc1ccc(OC)cc1)C(=O)c1ccc(Cl)c(S(=O)(=O)N2CCCC2)c1 ?
Response: -2.9

Request: inhibition for O=C1CCC2(CCC(c3ccc(Cl)cc3)CC2)N1CCO (configuration not stated) ?
Response: -4.08
